- System: YST-1
- assay: % inhibition of CellTiter-Glo viability at highest tested concentration (72 h), relative to DMSO and benzethonium chloride controls; higher = more inhibition
Consider the following molecules; for each one, report its % inhibition.
Answers are plain numbers, in %.

O=C(O)c1ccc(Nc2ncc3c(n2)-c2ccc(Cl)cc2C(c2c(F)cccc2F)=NC3)cc1 [MLN-8054] (max concentration tested 10000 nM); 46.6
CC1=NN(c2ccc(C(=O)O)cc2)C(=O)C1=Cc1ccc(-c2cc(C)c(C)cc2[N+](=O)[O-])o1 [C646] (max concentration tested 25000 nM); 19.6
COC(=O)c1ccc2c(c1)NC(=O)/C2=C(\Nc1ccc(N(C)C(=O)CN2CCN(C)CC2)cc1)c1ccccc1 [Nintedanib] (max concentration tested 10000 nM); 39.7
CNC(=O)c1ccccc1Sc1ccc2c(/C=C/c3ccccn3)n[nH]c2c1 [Axitinib] (max concentration tested 10000 nM); 39.9

Field: % inhibition. Fill in for each record below.
1. CC[C@H](CO)Nc1nc(NCc2ccccc2)c2ncn(C(C)C)c2n1 [Seliciclib] (max concentration tested 10000 nM)
2. Nc1ncn([C@@H]2O[C@H](CO)[C@@H](O)[C@H]2O)c(=O)n1 [Azacitidine] (max concentration tested 10000 nM)
3. c1ccc2c(CCNc3ccc(Nc4ccncc4)cc3)c[nH]c2c1 [Serdemetan] (max concentration tested 10000 nM)
4. CCN(CC)C(=S)SSC(=S)N(CC)CC [Disulfiram] (max concentration tested 100000 nM)
5. O=C(NC1CCNCC1)c1n[nH]cc1NC(=O)c1c(Cl)cccc1Cl [AT7519] (max concentration tested 10000 nM)

Result:
5.74
22.1
92.5
101
98.7

Field: % inhibition. Fill in for each record below.
1. CO[C@H]1C[C@@H]2CC[C@@H](C)[C@@](O)(O2)C(=O)C(=O)N2CCCC[C@H]2C(=O)O[C@H]([C@H](C)C[C@@H]2CC[C@@H](O)[C@H](OC)C2)CC(=O)[C@H](C)/C=C(\C)[C@@H](O)[C@@H](OC)C(=O)[C@H](C)C[C@H](C)/C=C/C=C/C=C/1C [Sirolimus] (max concentration tested 100 nM)
2. Cc1ccc2nc(CN(CCN(Cc3nc4ccc(C)cc4[nH]3)Cc3nc4ccc(C)cc4[nH]3)Cc3nc4ccc(C)cc4[nH]3)[nH]c2c1 (max concentration tested 50000 nM)

Result:
1: 45.1; 2: 67.5
